Catalogue of TGI readings, one per entry.
# System: UACC-62 melanoma
# assay name: NCI tumour cell line growth inhibition, 48 h

molecule: NCCSCCC(=O)O
subject of test: UACC-62 melanoma
TGI: > 70.9 µM
--
molecule: CCCCN(C)/N=N/c1nc[nH]c1C(N)=O
subject of test: UACC-62 melanoma
TGI: > 100 µM
--
molecule: COc1ccc(C(=O)c2cc(C)c(OC)c(C)c2)c(OC)c1NC(C)=O
subject of test: UACC-62 melanoma
TGI: > 100 µM
--
molecule: CCCCCCCC1(c2ccc(N)cc2)CCC(=O)NC1=O (stereo unspecified)
subject of test: UACC-62 melanoma
TGI: > 100 µM
--
molecule: Cc1c2ccncc2c(C)c2c1[nH]c1ccc(OCCN(C)C)cc12
subject of test: UACC-62 melanoma
TGI: 2.35 µM

Return reported TGI. Input molecule: CC1(C)C=C(/C=N/Nc2ccccc2)C(C#N)=C(O)C1(C#N)C#N
> 100 µM
